# subject_of_test: T1, recombinant human CD73 protein (ACRO Biosystems, item No. CD3-H52H7) (human, UniProt P21589 27-547)
# T1 construct: also called recombinant CD73 protein
# T1 sequence (looked up): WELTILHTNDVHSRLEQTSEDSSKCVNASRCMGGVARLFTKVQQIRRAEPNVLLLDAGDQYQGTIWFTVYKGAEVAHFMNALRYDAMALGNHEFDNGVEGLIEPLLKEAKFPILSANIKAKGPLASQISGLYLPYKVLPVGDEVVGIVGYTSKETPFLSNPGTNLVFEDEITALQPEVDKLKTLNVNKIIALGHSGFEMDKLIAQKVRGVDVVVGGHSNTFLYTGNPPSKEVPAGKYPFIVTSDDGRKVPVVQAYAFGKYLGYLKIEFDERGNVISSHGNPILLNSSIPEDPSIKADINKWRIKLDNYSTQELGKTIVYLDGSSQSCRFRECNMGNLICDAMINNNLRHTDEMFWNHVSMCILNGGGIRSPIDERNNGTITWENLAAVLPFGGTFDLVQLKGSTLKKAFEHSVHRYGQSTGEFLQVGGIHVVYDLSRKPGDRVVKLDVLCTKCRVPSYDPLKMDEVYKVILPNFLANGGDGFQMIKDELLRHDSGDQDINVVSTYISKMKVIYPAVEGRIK
# method: SPR, Biacore T200, antibody captured on protein A chip, human CD73 as analyte, 1:1 model
# kon values compiled below
measured_property: kon (M⁻¹ s⁻¹)

binder	measured_value
900567 (human-mouse chimeric anti-CD73 antigen-binding protein expressed from 124A9 variable regions) (antibody, V domains shown) VH: QVQLQQPGAELVKPGASVKLSCKASGYTFTSYWIHWVKQRPGQGLDWIGMIHPNSGSTYYNEKFKSKATLTVDKSSSTAYMQLSSLTSEDSAVYYCARYYGSDYEWYFDVWGTGTTVTVSS VL: DIVMTQSQKFMSTSVGDRVSITCKASQNVRTAVVWYQQNPGQSPKALIYLASNRHTGVPDRFTGSGSGTDFTLTISNVHSEDLADYFCLQHWNYPYTFGGGTKLEIK	752000
900726 (humanized anti-CD73 antigen-binding protein) (antibody, V domains shown) VH: QVQLVQSGAEVKKPGASVKLSCKASGYTFTSYWIHWVRQAPGQGLEWIGMIHPNSGSTYYNEKFKGRATLTVDKSTSTAYMELSSLRSEDTAVYYCARYYGSDYEWYFDVWGQGTTVTVSS VL: DIQMTQSPSSLSASVGDRVTITCKASQNVRTAVVWYQQKPGKAPKALIYLASNRHTGVPDRFSGSGSGTDFTLTISSLQPEDFATYYCLQHWNYPYTFGQGTKLEIK	496000
900725 (humanized anti-CD73 antigen-binding protein) (antibody, V domains shown) VH: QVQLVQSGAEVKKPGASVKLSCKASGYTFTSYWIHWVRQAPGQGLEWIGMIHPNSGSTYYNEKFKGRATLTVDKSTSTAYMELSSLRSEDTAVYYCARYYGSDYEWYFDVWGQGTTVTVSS VL: DIQMTQSPSSMSASVGDRVTITCKASQNVRTAVVWYQQKPGKAPKALIYLASNRHTGVPDRFSGSGSGTDFTLTISSLQPEDFATYFCLQHWNYPYTFGQGTKLEIK	626000
900727 (humanized anti-CD73 antigen-binding protein) (antibody, V domains shown) VH: QVQLVQSGAEVKKPGASVKVSCKASGYTFTSYWIHWVRQAPGQGLEWIGMIHPNSGSTYYAQKFQGRVTITVDKSTSTAYMELSSLRSEDTAVYYCARYYGSDYEWYFDVWGQGTTVTVSS VL: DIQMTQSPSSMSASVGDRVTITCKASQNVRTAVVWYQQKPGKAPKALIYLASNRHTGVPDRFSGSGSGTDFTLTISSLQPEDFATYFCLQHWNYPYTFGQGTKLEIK	626000
900728 (humanized anti-CD73 antigen-binding protein) (antibody, V domains shown) VH: QVQLVQSGAEVKKPGASVKVSCKASGYTFTSYWIHWVRQAPGQGLEWIGMIHPNSGSTYYNEKFQGRVTMTVDKSTSTAYMELSSLRSEDTAVYYCARYYGSDYEWYFDVWGQGTTVTVSS VL: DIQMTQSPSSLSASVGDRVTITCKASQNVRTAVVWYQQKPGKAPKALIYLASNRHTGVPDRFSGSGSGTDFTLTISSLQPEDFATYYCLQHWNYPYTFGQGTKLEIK	841000
